Hey, just so you know, these numbers are from paper PMC8153610.

- procedure-summary: Single-pass intestinal perfusion (SPIP) with mesenteric blood sampling: permeability and absorption
- Assay type: in vivo
- run-parameters: rat, pH 7; ileum, SPIP in rats, luminal disappearance, mean ± SD, n = 4; read-out: Intestinal effective permeability coefficient (Peff) ± SD
measurement-kind: Effective intestinal permeability (Peff) at 60 min (×10⁻⁶ cm/s)
Expressed in ×10⁻⁶ cm/s, but write only the number.

Ask: Using the record for `C/C=C(/C=O)[C@@H](CC=O)CC(=O)OCCc1ccc(O)c(O)c1` , report its Effective intestinal permeability (Peff) at 60 min.
Result: 183
